# System: SF-539
# Test: NCI tumour cell line growth inhibition, 48 h
The source made the active and inactive calls. No stated cut-off is given here; in the data, active = GI50 up to about 1.1 µM and inactive = higher.
So I've got a bunch of compounds here, and I need their GI50 values.

For COC(=O)[C@]12CSC[C@H]1C[C@H](c1cccc3ccccc13)N2 the compound record lists GI50 as > 100 µM (inactive)

For CC(CCC#N)(CCC#N)C(=O)CC(O)(C(F)(F)F)C(F)(F)F the compound record lists GI50 as 3.44 µM (inactive)

For O=S(=O)(c1cc(Cl)ccc1Cl)N1CCN(c2cccc(Cl)c2)CC1 the compound record lists GI50 as > 100 µM (inactive)

For c1ccc2c(c1)cc1n2CCc2c-1[nH]c1ccccc21 the compound record lists GI50 as > 10 µM (inactive)

For CCOP(=O)(OCC)C(C)(C)OC(=O)NC(F)(F)F the compound record lists GI50 as > 100 µM (inactive)

For Cc1ccccc1OC(C)C(=O)NN1C(=O)CC(=O)NC1=S (centres undefined) the compound record lists GI50 as > 100 µM (inactive)

For O=C(N/C(=C\c1ccc([N+](=O)[O-])cc1)c1nc2ccccc2s1)c1ccccc1 the compound record lists GI50 as 23.6 µM (inactive)

For Cc1cc2c(nn1)-c1ccccc1C2=O the compound record lists GI50 as > 10 µM (inactive)

For CC(=O)Oc1c(-c2ccccc2)sc2ccccc12 the compound record lists GI50 as 20.6 µM (inactive)

For CCOC(=O)N1CCC2(CC1)CC(=O)N(Nc1ccccc1)C2=O the compound record lists GI50 as 27.5 µM (inactive)

For CCOC(=O)CC(NC(=O)c1nc[nH]c1[N+](=O)[O-])C(=O)OCC (centres undefined) the compound record lists GI50 as 59.6 µM (inactive)

For COC(=O)CCCCCOS(=O)(=O)c1ccc(C)cc1 the compound record lists GI50 as > 100 µM (inactive)

For CCOC(=O)C1=C(C)N(C2OC(COC(C)=O)C(OC(C)=O)C(OC(C)=O)C2OC(C)=O)C(=O)NC1c1ccccc1 (centres undefined) the compound record lists GI50 as > 100 µM (inactive)

For Cc1n[nH]c(=O)n1/N=C/c1ccc(Cl)cc1 the compound record lists GI50 as 78.2 µM (inactive)

###

# Test system: SW-620
# Test: NCI tumour cell line growth inhibition, 48 h
Active and inactive are the calls of the source. Cut-off read from the data, not from the text of the source: active = GI50 up to about 1.1 µM and inactive = higher.
Observable: GI50

For O=c1nc(N2CCNCC2)oc2cc(Cl)oc(=O)c12 the molecule record lists GI50 as 2.26 µM (inactive)

For Cc1nn(-c2ccccc2)c(S)c1C(=O)c1ccccc1 the molecule record lists GI50 as 32.6 µM (inactive)

For COc1ccc(OC)c(/C=C/C(=O)C(C)(C)C)c1 the molecule record lists GI50 as 14.5 µM (inactive)

For Cc1ccc2c(c1C)C(=O)C1(C2)Cc2ccc3c(c2C1=O)CCC3 (configuration not stated) the molecule record lists GI50 as > 100 µM (inactive)

For C1=CC2SSSC2C1 (configuration not stated) the molecule record lists GI50 as > 100 µM (inactive)

For COc1cc2c(c(OC)c1OC)C(=O)[C@H](Br)[C@H]2NC(=O)NCCCl the molecule record lists GI50 as > 100 µM (inactive)

For C#CCCOC(=O)c1ccccc1OC(C)=O the molecule record lists GI50 as > 100 µM (inactive)

###

# Test system: A498
# Test: NCI tumour cell line growth inhibition, 48 h
Activity calls are given as the source filed them. No stated cut-off is given here; in the data, active = GI50 up to about 1.1 µM and inactive = higher.
So I've got a bunch of compounds here, and I need their GI50 values.

For CC(=O)c1ccc(Oc2c3ccccc3nc3ccccc23)cc1 the compound record lists GI50 as 16.1 µM (inactive)

For O=C(Nc1cccc(-c2cn3ccccc3n2)c1)c1ccncc1 the compound record lists GI50 as 76 µM (inactive)

For NNC(=O)C1(NC(=O)c2ccccc2)C(c2ccccc2)C(c2ccccc2)=NN1c1ccccc1 (stereo unspecified) the compound record lists GI50 as > 100 µM (inactive)

For CN(C(=O)C12C3C4(C(=O)O)C1(C(=O)N(C)C(C)(C)C)C1C2(C(=O)O)C3(C(=O)N(C)C(C)(C)C)C14C(=O)N(C)C(C)(C)C)C(C)(C)C (stereo unspecified) the compound record lists GI50 as > 100 µM (inactive)

For CC[C@]12C=CCN3CC[C@@]4(c5cc(Br)c(OC)cc5N(C)[C@H]4[C@@](O)(C(=O)N[C@@H](Cc4ccc(O)cc4)C(=O)OC)[C@@H]1O)[C@@H]32 the compound record lists GI50 as 18.1 µM (inactive)

For COc1ccc(OC)c2c1-c1nnnn1CCC2(C)C the compound record lists GI50 as > 100 µM (inactive)

###

# System: HOP-92
# Test: NCI tumour cell line growth inhibition, 48 h
Activity calls are given as the source filed them. No stated cut-off is given here; in the data, active = GI50 up to about 1.1 µM and inactive = higher.
So I've got a bunch of compounds here, and I need their GI50 values.

For COC(=O)CCCCCOS(=O)(=O)c1ccc(C)cc1 the compound record lists GI50 as > 100 µM (inactive)

For Cc1cc2cc3c(cc2c(-c2ccc([N+](=O)[O-])cc2)n1)OCO3 the compound record lists GI50 as 3.77 µM (inactive)

For Cc1ccc([N+](=O)[O-])cc1S(=O)(=O)Nc1ccc(C2=NOC(c3ccccc3O)C2)cc1 (stereo not drawn) the compound record lists GI50 as 26.2 µM (inactive)

###

# Test system: SNB-75
# Test: NCI tumour cell line growth inhibition, 48 h
Calls of active or inactive are those of the source. No stated cut-off is given here; in the data, active = GI50 up to about 1.1 µM and inactive = higher.
Observable: GI50

For COc1cc2oc(-c3ccc(O)cc3)cc(=O)c2c(OC)c1OC the compound record lists GI50 as 18.4 µM (inactive)

For O=C(O)Cc1ccc(Oc2nc3ccccc3nc2-c2ccccc2)cc1 the compound record lists GI50 as > 100 µM (inactive)

For CC1(C)CC(=O)c2c([nH]c(=S)c(C#N)c2-c2ccc(Br)cc2)C1 the compound record lists GI50 as > 100 µM (inactive)

For CCn1c2ccccc2c2ccc(C3C4C(=O)N(c5cccc6ccccc56)C(=O)C4ON3C(C(N)=O)c3ccccc3)cc21 (configuration not stated) the compound record lists GI50 as > 25 µM (inactive)

For COc1cc(C=C2C(=O)NC(=S)NC2=O)cc(OC)c1OC the compound record lists GI50 as 60.7 µM (inactive)

For O=C(CC1C(=O)c2ccccc2C1=C1C(=O)c2ccccc2C1=O)c1ccccc1 (configuration not stated) the compound record lists GI50 as > 100 µM (inactive)

For Brc1ccc2c(-c3csc(-c4c[nH]c5ccc(Br)cc45)n3)c[nH]c2c1 the compound record lists GI50 as 10.2 µM (inactive)

###

So I've got a bunch of compounds here, and I need their GI50 values.
# Test system: NCI-H226
# Test: NCI tumour cell line growth inhibition, 48 h
Calls of active or inactive are those of the source. Rule as the data show it: active = GI50 up to about 1.1 µM and inactive = higher.

For CCOC(=O)c1nc2ccc(C(F)(F)F)cc2nc1NCc1ccc(F)cc1 the compound record lists GI50 as 29 µM (inactive)

For CC(=O)O[C@H]1CC[C@@]2(C)C(=CC[C@@H]3[C@@H]2CC[C@]2(C)NC(=O)/C(=C\c4ccccc4)C[C@@H]32)C1 the compound record lists GI50 as 18.3 µM (inactive)

For Cc1cc(O)nc(NNC(C#N)c2c(O)ccc3ccccc23)n1 (stereo not given) the compound record lists GI50 as 4.14 µM (inactive)

For Cc1cc(O)c2c(c1)C(C1OC(CO)C(O)C(O)C1O)c1cc(O)cc(O)c1C2=O (stereo not given) the compound record lists GI50 as > 100 µM (inactive)

For COc1ccc2c(c1)[n+]([O-])c(C(=O)C/C(=N/OCCCc1ccccc1)C(=O)NC13CC4CC(CC(C4)C1)C3)c(C)[n+]2[O-] the compound record lists GI50 as > 100 µM (inactive)

###

# Tested on: Hs-578T
# Test: NCI tumour cell line growth inhibition, 48 h
Calls of active or inactive are those of the source. No stated cut-off is given here; in the data, active = GI50 up to about 1.1 µM and inactive = higher.
Use one of these outcomes when replying: active, inactive

Query: Field: outcome | Entry: C=C(C)[C@@H]1CCC2=C[C@@H](OC2=O)[C@@H](C(=C)C)C2=CC(C(=O)O)=C(C1)O2
Reply: inactive

Query: Field: outcome | Entry: COc1ccc2c(N=[N+]=[N-])c(-c3ccccc3)c(=O)oc2c1
Reply: inactive

Query: Field: outcome | Entry: CCOC(=O)N1CCC2(CC1)CC(=O)N(Nc1ccccc1)C2=O
Reply: inactive

Query: Field: outcome | Entry: Cc1cc2c(nn1)-c1ccccc1C2=O
Reply: inactive

Query: Field: outcome | Entry: O=C(CN1CCOCC1)c1ccc2c(c1)oc(=O)n2CCN1CCCCC1
Reply: inactive

Query: Field: outcome | Entry: CC(C)C1/C(=N/O)CC(c2ccccc2)N(N=O)C1c1ccccc1 (stereo not given)
Reply: inactive

Query: Field: outcome | Entry: COC(=O)C(Cc1ccccc1)NC(=O)CNC(=O)CSc1nnc(COc2ccc(Cl)cc2)n1-c1ccccc1 (stereo not given)
Reply: inactive

Query: Field: outcome | Entry: CCOc1ccc(/C=C2\N=C(c3ccc([N+](=O)[O-])cc3)OC2=O)cc1
Reply: inactive

Query: Field: outcome | Entry: CCCNC(=O)c1cc(NC(=O)c2cc(NC(=O)/C=C/c3ccccc3)c(OC)c(OC)c2)c(OC)c(OC)c1
Reply: inactive

Query: Field: outcome | Entry: CCOC(=O)c1nc2ccc(C(F)(F)F)cc2nc1NCc1ccc(F)cc1
Reply: inactive

Query: Field: outcome | Entry: CCOC(=O)C(=CNc1ccc(F)c(F)c1)C(=O)OCC
Reply: inactive

Query: Field: outcome | Entry: COC(=O)/C=C\Sc1ccn(/C=C\C(=O)OC)c(=S)n1
Reply: inactive

Query: Field: outcome | Entry: CNC(=O)c1ccccc1[S+]1c2cccc3cccc(c23)C(=O)N1C (stereo not given)
Reply: inactive

Query: Field: outcome | Entry: Cc1occc1C(=S)Nc1ccc(Cl)c(C(=O)OCC(C)C)c1
Reply: inactive

Query: Field: outcome | Entry: [O-][S+](c1ccccc1)c1ccc(/N=N/O)nc1 (stereo not given)
Reply: inactive

Query: Field: outcome | Entry: Cc1cccc(Nc2cc(Cl)nc(SCC(=O)O)n2)c1C [PIRINIXIC ACID]
Reply: inactive

Query: Field: outcome | Entry: SC1=NC2(CCCCCC2)NN1c1ccccc1
Reply: inactive

Query: Field: outcome | Entry: COc1ccc(NC(=O)c2cc(NC(=O)/C=C/c3ccccc3)c(OC)c(OC)c2)cc1
Reply: inactive

Query: Field: outcome | Entry: Cc1cn(C2CC(O)C(CO)O2)c(=O)[nH]c1=O (stereo not given)
Reply: inactive

Query: Field: outcome | Entry: COc1ccc(CCn2ccc(=O)c(O)c2C)cc1OC
Reply: active
